- experimental_system: Serine-threonine protein phosphatase 2A regulatory subunit (Gallus gallus)
- Sequence (Q8AWE3 whole entry): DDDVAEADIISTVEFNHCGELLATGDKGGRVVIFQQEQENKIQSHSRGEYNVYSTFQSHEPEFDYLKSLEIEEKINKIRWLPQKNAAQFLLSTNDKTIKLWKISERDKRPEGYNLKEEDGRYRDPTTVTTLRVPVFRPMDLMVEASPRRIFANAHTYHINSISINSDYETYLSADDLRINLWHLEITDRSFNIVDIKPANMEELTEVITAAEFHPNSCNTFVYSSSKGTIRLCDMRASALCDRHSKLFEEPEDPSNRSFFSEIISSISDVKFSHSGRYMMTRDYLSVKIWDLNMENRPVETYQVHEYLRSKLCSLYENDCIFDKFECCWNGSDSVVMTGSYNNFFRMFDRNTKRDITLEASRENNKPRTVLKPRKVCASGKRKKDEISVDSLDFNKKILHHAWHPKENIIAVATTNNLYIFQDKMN
- assay_notes: Inhibition activity against protein phosphatase 2A (PP2A), activity taken from literature
observed_property: pIC50
Reminder that pIC50 means the negative base-10 logarithm of the concentration expressed in mol/L.

{"columns": ["chem_smiles", "experimental_system", "pIC50"],
 "data": [
  ["CC=C1C(=O)N[C@@H](C(=O)O)[C@H](C)C(=O)N[C@@H](CCCNC(=N)N)C(=O)N[C@@H](/C=C/C(C)=C/[C@H](C)[C@H](Cc2ccccc2)OC)[C@H](C)C(=O)N[C@@H](C(=O)O)CCC(=O)N1C", "Serine-threonine protein phosphatase 2A regulatory subunit (Gallus gallus)", 9.00]
]}

Below: the item to evaluate.
Quick note, pIC50 for "C=C1[C@@H](O)[C@@H]2O[C@]3(CC[C@H](/C=C/[C@@H](C)[C@@H]4CC(C)=C[C@@]5(O[C@H](C[C@@](C)(O)C(=O)O)CC[C@H]5O)O4)O3)CC[C@H]2O[C@@H]1[C@@H](O)C[C@H](C)[C@H]1O[C@@]2(CCCCO2)CC[C@H]1C" landed at 9.00
